Target: human chemokine receptor CXCR7 (Homo sapiens (Human), UniProt P25106)
Sequence (P25106 whole entry): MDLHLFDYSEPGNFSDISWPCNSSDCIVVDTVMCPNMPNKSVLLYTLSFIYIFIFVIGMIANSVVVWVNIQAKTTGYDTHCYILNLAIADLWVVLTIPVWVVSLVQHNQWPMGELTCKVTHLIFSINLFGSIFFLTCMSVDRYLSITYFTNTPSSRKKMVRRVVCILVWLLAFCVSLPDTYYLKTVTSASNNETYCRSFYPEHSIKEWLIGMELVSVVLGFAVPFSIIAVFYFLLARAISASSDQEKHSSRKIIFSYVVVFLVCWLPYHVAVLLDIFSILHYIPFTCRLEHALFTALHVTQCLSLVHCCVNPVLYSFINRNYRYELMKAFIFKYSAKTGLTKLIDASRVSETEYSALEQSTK
Experiment: Tango CXCR7-bla U2OS beta-arrestin recruitment assay (beta-lactamase reporter, FRET), antagonism of CXCL12/SDF1-α;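 note: compounds preincubated 15 min before CXCL12 addition, then 22 h at 37 °C, FRET emission ratio read with CCF4-AM substrate after 2 h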
Type: cell-based
Details: antagonistic effect on CXCR7; Tango CXCR7-bla U2OS cells, CXCL12/SDF1-α at its EC80
resultType: pIC50
Schema: pIC50 number; meaning minus log10 of the concentration expressed in molar units.

// Input: O=C(N[C@@H]1CCN(C2CCCCC2)C[C@H]1C(=O)NC1(c2ccc(F)cn2)CC1)c1cn(-c2ccc(F)cc2F)nn1 (racemic) . Output its pIC50 only.
6.33

Consider the compound O=C(N[C@@H]1CCN(CC2CC2)C[C@H]1C(=O)N1CC[C@@H]1c1ncccn1)c1cc(-c2ccc(F)cc2F)on1 [Example 4.079b] . State its measured pIC50.
7.74

Kindly indicate its recorded pIC50. Item: O=C(N[C@H]1CCN(C2CCCC2)C[C@@H]1C(=O)NC1(c2cccc[n+]2[O-])CC1)c1cc(-c2ccc(F)cc2F)on1 [Example 2.062b]
7.85

Supply reported pIC50 belonging to this compound: C[C@H]([C@@H](C)O)N1CC[C@@H](NC(=O)c2cc(-c3ccc(F)cc3F)on2)[C@H](C(=O)N[C@H](C)c2ccccn2)C1
6.86

Return pIC50 for the following compound: CN(C)C(=O)[C@@H]1CN(CC2CC2)CC[C@H]1NC(=O)c1cc(-c2ccc(F)cc2F)on1 [Example 2.045]
6.94

// fetch pIC50 given entry CN(C)CCN(C)C(=O)[C@@H]1CN(C2CCCCC2)CC[C@H]1NC(=O)c1cc(-c2ccc(F)cc2F)on1 (racemic)
6.50

Quick one: give measured pIC50 for O=C(N[C@@H]1CCN(CC2CC2)C[C@H]1C(=O)N1CCC1)c1cc(-c2c(F)cc(F)cc2F)on1 (racemic)
6.28

Quick one: give measured pIC50 for COCC(C)(C)NC(=O)[C@@H]1CN(CC2CC2)CC[C@H]1NC(=O)c1cc(-c2c(F)cc(F)cc2F)on1 (single isomer, unassigned) [Example 1.113a]
6.25

Find the measured pIC50 of C[C@@H](NC(=O)[C@@H]1CN(C2CCCCC2)CC[C@H]1NC(=O)c1cn(-c2ccc(F)cc2F)nn1)c1ccccn1 (relative stereo) and report it.
7.17

Report pIC50, nothing else, for this compound: C[C@@H](NC(=O)[C@@H]1CN(C2CCCCC2)CC[C@H]1NC(=O)c1noc(-c2ccc(F)cc2F)n1)c1ccccn1 (relative stereo)
7.04

Read off the recorded pIC50 for Cc1cccc(CNC(=O)[C@H]2CN(CC3CC3)CC[C@@H]2NC(=O)c2cc(-c3ccc(F)cc3F)on2)n1
6.12

// Input: CN(C(=O)[C@@H]1CN(C2CCCCC2)CC[C@H]1NC(=O)c1cc(-c2ccc(F)cc2F)on1)C1CC1 (racemic) . Output its pIC50 only.
6.62

# return recorded pIC50 for entry C[C@@H](NC(=O)[C@H]1CN(C2CCCCC2)CC[C@@H]1NC(=O)c1cc(-c2ccc(F)cc2F)on1)C1CCC1
6.44

Return the recorded pIC50 value; entry: C[C@@H](NC(=O)[C@@H]1CN(C2CCCC2)CC[C@H]1NC(=O)c1noc(-c2ccc(F)cc2F)n1)c1ccccn1 (relative stereo)
6.88

Complete the entry with pIC50 for O=C(N[C@@H]1CCN(C2CCCCC2)C[C@H]1C(=O)N1CCC(c2ccccn2)C1)c1cc(-c2ccc(F)cc2F)on1 (relative stereo)
6.33

Supply measured pIC50 of O=C(N[C@H]1CCN(CC2CC2)C[C@@H]1C(=O)NC1(c2ncccn2)CC1)c1cn(-c2c(F)cc(F)cc2F)nn1 in your reply.
6.45

Given the compound O=C(N[C@@H]1CCN(CC2CC2)C[C@H]1C(=O)NC1(c2ccccn2)CC1)c1cc(-c2c(F)cc(F)cc2F)on1 (single isomer, unassigned) [Example 1.171b] , write its reported pIC50.
6.35

State its pIC50: O=C(N[C@@H]1CCN(C2CCCCC2)C[C@H]1C(=O)NC1(c2ccccn2)CC1)c1cn(-c2ccc(F)cc2F)nn1 (single isomer, unassigned) [Example 1.165b]
6.27

Output measured pIC50 for this item: CN(C)C(=O)[C@@H]1CN(C2CCCCC2)CC[C@H]1NC(=O)c1cc(-c2ccc(Cl)cc2F)on1 (racemic)
6.97

Let me know recorded pIC50 for Cc1nc(C(C)(C)NC(=O)[C@H]2CN(C3CCCC3)CC[C@@H]2NC(=O)c2cc(-c3ccc(F)cc3F)on2)no1 , thanks.
7.25

In one line, give reported pIC50 of the entry O=C(N[C@@H]1CCN(CC2CC2)C[C@H]1C(=O)NC1(c2ncccn2)CC1)c1noc(-c2ccc(F)cc2F)c1F (racemic) [Example 3.022] .
7.55

State its pIC50 for this compound: CN(CCc1ccccc1)C(=O)[C@@H]1CN(CC2CC2)CC[C@H]1NC(=O)c1cc(-c2ccc(F)cc2F)on1
7.82

Supply pIC50 value. Item: CC(C)N1CC[C@@H](NC(=O)c2cc(-c3ccc(F)cc3F)on2)[C@H](C(=O)N(C)C)C1 (racemic)
6.68

Hello, please tell me recorded pIC50 for this one: O=C(N[C@H]1CCN(C2CCC2)C[C@@H]1C(=O)NC1(c2cccc[n+]2[O-])CC1)c1cc(-c2ccc(F)cc2F)on1
6.66
